Data origin: patent US20230014907A1

Molecular target: G1 APOL1 (Homo sapiens, UniProt O14791, I384M/S342G)
Construct: expressed in transfected cells
Sequence (O14791 28-398 S342G/I384M): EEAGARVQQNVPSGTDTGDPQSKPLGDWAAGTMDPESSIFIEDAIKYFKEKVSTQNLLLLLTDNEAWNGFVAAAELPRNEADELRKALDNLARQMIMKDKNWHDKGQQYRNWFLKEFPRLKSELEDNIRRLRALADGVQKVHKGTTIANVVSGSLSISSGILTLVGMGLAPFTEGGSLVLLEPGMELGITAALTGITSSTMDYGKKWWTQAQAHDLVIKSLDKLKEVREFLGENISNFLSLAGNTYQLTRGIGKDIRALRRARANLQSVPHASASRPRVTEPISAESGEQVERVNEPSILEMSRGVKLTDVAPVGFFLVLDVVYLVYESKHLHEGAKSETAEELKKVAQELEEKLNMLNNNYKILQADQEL
Test: Acute APOL1 Thallium Assay with Inducible Stable Clones of HEK 293 Cells
Assay type: cell-based
Text: Acute APOL1 Thallium Assay with Inducible Stable Clones of HEK 293 Cells Apolipoprotein L1 (APOL1) proteins form potassium-permeable cation pores in the plasma membrane. APOL1 risk variants (G1 and G2) induce greater potassium flux than G0 in HEK293 cells. […] The increase of fluorescence in the assay represents the influx of Tl+ into the cell specifically through the potassium channel (i.e. through APOL1 pores), providing a functional measurement of potassium channel/pore activity. […]
ATTRIBUTE MEASURED: IC50

I am curious: what IC50 value has been reported for "CN(C)CCc1c(-c2ccc(F)cc2)[nH]c2c(F)cc(F)cc12" ?
> 1000 nM
